Data provenance is patent US20250154283A1.

EXPERIMENTAL_SYSTEM: T1, biotinylated cynomolgus monkey VWF cysteine knot (CK) domain construct (cynomolgus monkey, biotinylated in vitro (BirA) on the biotinylation tag; one N-glycan)
T1 construct: Expressed in HEK293 EBNA cells; disulfide-linked homodimer; also called cyno VWF CK; cyno VWF CK domain; not shown: in vitro biotinylation tag, HRV-3C site and 3 VWF residues before the CK domain
T1 chain: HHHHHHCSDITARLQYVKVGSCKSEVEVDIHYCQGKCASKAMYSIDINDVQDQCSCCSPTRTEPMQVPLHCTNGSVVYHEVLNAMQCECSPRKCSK
ASSAY_SUMMARY: SPR, scFv captured via anti-SV5, CK domain injected, pH 7.4, apparent Kd;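 further: scFvs from crude yeast supernatants printed on an amine-coupled anti-SV5 lawn, Kd computed as koff over kon, likely overestimating affinity because the CK construct is dimeric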
Measured pKd values are reported for all entries that follow.
The read-out pKd is expressed as -log10 of concentration in moles per litre.

* Lib4_P2_B4_scFv (scFv, VH-linker-VL; not shown: C-terminal 3xFLAG and SV5 tags) scFv: QVQLQESGPGLVKPSQTLSLTCTVSGASLGDQYWSWIRQPPGKGLEWIGYIHPSGDFDYNPSLKSRVTMSVDTSKNQFSLKVNSVTAADTAVYYCARHYSSSWYGTWYFDLWGRGTLVTVSSSGGSTITSYNVYYTKLSSSGTEIVMTQSPATLSLSPGERATLSCRASQNIGTNLAWYQQKPGQAPRLLIYDASVRAAGIPARFSGSGSGTDFTLTISSLEPEDFAVYYCQQSLTTPLTFGGGTKVEIK | 10.02
* Lib4_P2_D1_scFv (scFv, VH-linker-VL; not shown: C-terminal 3xFLAG and SV5 tags) scFv: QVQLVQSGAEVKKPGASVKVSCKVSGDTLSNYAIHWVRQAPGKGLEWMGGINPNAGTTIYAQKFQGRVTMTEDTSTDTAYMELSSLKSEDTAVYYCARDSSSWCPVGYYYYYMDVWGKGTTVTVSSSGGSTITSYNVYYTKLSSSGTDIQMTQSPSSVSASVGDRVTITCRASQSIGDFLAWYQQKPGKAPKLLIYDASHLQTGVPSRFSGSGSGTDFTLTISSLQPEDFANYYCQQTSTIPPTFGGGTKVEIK | 9.29

Next item in the queue.
# binder 7046_Lib8_scFv (scFv, VH-linker-VL; not shown: C-terminal 3xFLAG and SV5 tags) scFv: EVQLVESGGGLVQPGRSLRLSCAASGFNFHNYDMHWVRQAPGKGLEWVSAISGSGYTADYADSVEGRFTISRDNAKNSLYLQMNSLRAEDTAVYYCAKSHSSGWSSAFDIWGQGTMVTVSSSGGSTITSYNVYYTKLSSSGTDIQMTQSPSSLSASVGDRVTITCRASQTIGYWLAWYQQKPGKAPKLLIYDATNLATGVPSRFSGSGSGTDFTLTISSLQPEDVATYYCQHYNPYSQVTFGGGTKVEIK ; its pKd = 11.70
